experiment: Oral absorption, plasma pharmacokinetics after oral gavage; type: in vivo, rat (Sprague-Dawley); conditions: male, Sprague-Dawley, rat, plasma, po, 7 mg/kg

{"columns": ["MOLECULE", "Tmax"],
 "data": [
  ["O=C(NCCS)c1cccc(C(=O)NCCS)c1 [NBMI, N,N′-bis(2-mercaptoethyl)isophthalamide]", "2.3 h"]
]}

----------
experiment: Biodistribution of NBMI in plasma and tissues after oral gavage; format: in vivo, rat (Sprague Dawley); settings: male, Sprague Dawley, rat, small intestine, po, 100 mg kg^−1
TEST READOUT: concentration at 8 h (ng/g)

{"columns": ["COMPOUND", "TEST READOUT", "UNITS OF MEASURE", "RECORDED RESULT"],
 "data": [
  ["O=C(NCCS)c1cccc(C(=O)NCCS)c1 [NBMI, N,N′-bis(2-mercaptoethyl)isophthalamide]", "concentration at 8 h", "ng/g", 1560]
]}

All figures here come from paper PMC3346673.
